Attribution: the OPERA property sets (Mansouri et al. 2018)

Consider the following molecules; for each one, report its log10 vapour pressure (mmHg).

Solved entries:
CCCCOC(=O)CC = 0.645
C1CCC(C2CCCCC2)CC1 = -0.967
CCCCC(C)O (stereo unspecified) = 0.396
N#CC(CCc1ccc(Cl)cc1)(Cn1cncn1)c1ccccc1 (stereo unspecified) = -7.43

// each molecule listed below needs its log10 vapour pressure (mmHg)
1. O=Cc1ccc2c(c1)OCO2
2. CCCSP(=O)(OCC)Oc1ccc(Br)cc1Cl (stereo unspecified)
3. CC(=O)C1C(=O)C=C(C)OC1=O (stereo unspecified)

Response:
1. -2
2. -6.05
3. -2.9

Report log10 vapour pressure (mmHg) for each item below.
1. CCCc1ccc(O)cc1
2. Oc1ccccc1O
3. CCOC(=O)C(=O)OCC

Response:
1: -1.43; 2: -2.44; 3: -0.383

* * *

Categories are defined by ranges of melting point, namely low group (below 40 °C), middle group (40 °C to below 200 °C), high group (200 °C or more)

c1ccc2c3c(ccc2c1)-c1cccc2cccc-3c12 = middle group

Query: Band for COc1ccc(-c2cc(=O)c3c(O)cc(O)cc3o2)cc1 ?
Response: high group

Query: Please classify: N#Cc1cc[n+]([O-])cc1
Response: high group

Query: Hello team, could you let me know which band the following compound falls into: CCn1cc(C(=O)O)c(=O)c2ccc(-c3ccncc3)cc21
Response: high group

* * *

So I've got a bunch of molecules here, and I need their melting point values.
Numbers only, in °C.

Solved cases below.
O=C(Oc1cccc2cccnc12)c1ccccc1 = 119
CCOC(=O)C1(S(=O)(=O)c2ccc(C)cc2)CCC1 = 53.5
C=C(C)[C@@H]1CC[C@]2(C)CC[C@]3(C)[C@H](CC[C@@H]4[C@@]5(C)CC[C@H](O)C(C)(C)[C@@H]5CC[C@]43C)[C@@H]12 = 216
CCc1cc2cc(OC)c(OC)cc2c(Cc2ccccc2)n1 = 78.5
CCOc1ccc(N)c(N)c1 = 71.5

Give melting point for each listed item.
1. Cc1cc2c(cc1S(N)(=O)=O)S(=O)(=O)CCC2
2. CCSc1ccc2c(c1)N(CCCN1CCN(C)CC1)c1ccccc1S2
3. O=C1C=CC(=O)N1c1ccccc1
4. C1CCCCNCCC1

Response:
236
63
90.5
-19

Please give melting point, item by item, for the list that follows.
1. NNC(=O)c1ccccc1[N+](=O)[O-]
2. O=[N+]([O-])c1cc[n+]([O-])c2ccccc12
3. O=C(OCC(=O)N1CCCCCC1)c1ccccc1
4. C1O[C@@H]1[C@@H]1CO1

Response:
124
154
108
3.5

Quick one: give me melting point for each item below, same order please.
1. Cc1ccc(O)c(C)c1
2. N#Cc1cccc(C#N)c1
3. Cc1nn(C)c(Oc2ccccc2)c1C=NOCc1ccc(C(=O)OC(C)(C)C)cc1
4. CCCSP(=O)(OCC)SCCC
5. O=C(O)CCCCCc1ccccc1
6. OCC1=CCN2CC[C@@H](O)[C@@H]12

Response:
1: 24.5; 2: 162; 3: 102; 4: -13; 5: 23; 6: 120

* * *

Criterion: boiling point meeting or surpassing 200 °C. Met: YES. Not met: NO.

# count of solved cases: 5
CN(C)CCN = NO
CC(=O)C=Cc1ccccc1 = YES
CCC(=O)c1cccc(C)c1 = YES
Brc1cc(Br)c(Br)c(Br)c1 = YES
C[C@H](N)CCc1ccccc1 = YES

Attention now turns to another entry.
Query: Threshold query (boiling point >= 200 °C) on CCC=C(C)CO
Response: NO

* * *

Assign labels as follows, please: YES for melting point below 60 °C; NO for melting point equal to or exceeding 60 °C.

Take a look at these entries with their results.
Cc1c(C2(c3cc(C(C)C)c(O)c(Br)c3C)OS(=O)(=O)c3ccccc32)cc(C(C)C)c(O)c1Br = NO
Cc1cc(Br)cc(Br)c1O = YES
CC(=O)[C@H]1CC[C@H]2[C@@H]3CC[C@H]4C[C@H](O)CC[C@]4(C)[C@H]3CC[C@]12C = NO
COc1cc(-c2ccc(N)c(OC)c2)ccc1N = NO
CCCCC[C@H](O)/C=C/[C@@H]1[C@@H](C/C=C\CCCC(=O)O)[C@@H](O)C[C@H]1O = YES

Query: Check if melting point falls below 60 °C for CCCCCCCCCCCCCCCCCCS .
Response: YES

Query: Consider the molecule CCCCC1C(=O)N(c2ccccc2)N(c2ccc(O)cc2)C1=O (stereo not drawn) . Is its melting point strictly less than 60 °C?
Response: NO

Query: In the record for CN(C)C(C)(C)CO , is melting point less than 60 °C?
Response: YES

Query: Hello, I'm reviewing records and need to know if melting point of Cc1ncc(COP(=O)(O)O)c(C=O)c1O is below 60 °C. Could you check?
Response: NO

Query: hey, is melting point for ICC(CI)(CI)CI lower than 60 °C or not?
Response: NO

Query: # TODO verify melting point < 60 °C strictly for this molecule: c1ccc2c(c1)OCCOCCOCCOCCO2
Response: NO

Query: Regarding Oc1c(Cl)cc(Cl)c(Cl)c1Cl , kindly confirm whether its melting point is beneath 60 °C.
Response: NO

* * *

Measurement Type: melting point (°C)
Give bare numbers, in °C.

CC(=O)Nc1ccccc1-c1ccccc1 = 121
NCCN1CCOCC1 = 25.6

For every item below, please supply its melting point.
1. O=c1ccn([C@@H]2C[C@H](F)[C@@H](CO)O2)c(=O)[nH]1
2. c1ccc2c(c1)cc1ccc3cccc4ccc2c1c34
3. C=COC
4. CCC(CC)(CC)CC

Response:
1: 186; 2: 176; 3: -122; 4: -33.1

Batch request: melting point for each of the following molecules.
1. CCOP(=S)(OCC)SCCSCC
2. Cc1cc(C)c(O)cc1O
3. N#CCc1cccc(CC#N)c1
4. CC(C)NCC1CCc2cc(CO)c([N+](=O)[O-])cc2N1 (stereo not drawn)
5. CCN(CC)CCn1cnc2c1c(=O)n(C)c(=O)n2C
6. Nc1ccc(Cc2ccc(N)c(Cl)c2)cc1Cl
7. CCCCOC(=O)C(=O)[C@H]1[C@H](C)C[C@H]2[C@@H]3C[C@H](F)C4=CC(=O)C=C[C@]4(C)[C@H]3[C@@H](O)C[C@@]21C
8. CCCCCCCCCCCC[N+](C)(C)[O-]

Response:
[-25, 126, 33.5, 148, 75, 110, 195, 132]

Go through the list and state melting point for each entry.
1. O=COCC=Cc1ccccc1
2. CC(C)Nc1nc(N)nc(Cl)n1
3. C[C@@H]1C[C@H]2CC[C@H](O2)[C@H](C)C(=O)O[C@@H](C)C[C@@H]2CC[C@@H](O2)[C@@H](C)C(=O)O[C@H](C)C[C@H]2CC[C@H](O2)[C@H](C)C(=O)O[C@@H](C)C[C@@H]2CC[C@@H](O2)[C@@H](C)C(=O)O1
4. CC1=CCCC1

Response:
[0, 133, 148, -126]

# batch: return melting point for each of the 5 molecules below
1. FC(F)CBr
2. BrC=CBr
3. CSc1nnc(C(C)(C)C)c(=O)n1/N=C/C(C)C
4. CC(=O)N(C(C)=O)c1ccccc1
5. C=C(C)c1ccc(C(=C)C)cc1

Response:
[-75, -37.5, 159, 37.5, 63.5]

* * *

Would you mind telling me the reported melting point of each entry?
Numbers only, in °C.

Here is how some compounds turned out for melting point.
FC(F)C(F)(F)OCC(Cn1cncn1)c1ccc(Cl)cc1Cl (stereo not given) = 6
CCC(=O)O[C@](Cc1ccccc1)(c1ccccc1)[C@H](C)CN(C)C = 75.5
CC(C)=CCC/C(C)=C/C=C/C(C)=C/C=C/C(C)=C/C=C/C=C(C)/C=C/C=C(C)/C=C/C1C(C)=CCCC1(C)C (stereo not given) = 140
C=C1C/C(=C/C)C(=O)O[C@@H]2CCN3CC=C(COC(=O)[C@]1(C)O)[C@H]23 = 218
Cc1ccc2cc(N(C)C)ccc2n1 = 101

Batch: melting point for all items listed.
1. Cc1ccc(C(=O)c2ccccc2)cc1C
2. O=C(Nc1ccccc1)c1cc2ccccc2cc1O
3. O=C1NC(=O)C2(CCc3ccccc3C2)N1 (stereo not given)
4. COc1ccc2[nH]c3c(c2c1)CCNC3C (stereo not given)
5. Cc1cc(O)ccc1Cl

Response:
47.5
248
268
150
67

Quick request: melting point for each listed item, please.
1. CC1(C)CC[C@]2(C(=O)O)[C@H](O)C[C@]3(C)C(=CC[C@@H]4[C@@]5(C)CC[C@H](O)[C@@](C)(C=O)[C@@H]5CC[C@]43C)[C@@H]2C1
2. C=CC12CN(C)C3C4COC(CC41)[C@]1(C(=O)Nc4ccccc41)C32 (stereo not given in full)
3. CN(c1ccccc1)c1ccccc1
4. O=[N+]([O-])c1ccc(CO)cc1
5. Cc1c(C)c(O)c(C)c(C)c1O
6. Cc1ccc(N=Cc2ccccc2)cc1
7. O=C(O)c1c(F)ccc(F)c1F

Response:
1. 294
2. 178
3. -7.5
4. 96.5
5. 233
6. 35
7. 130

List melting point for every entry below, keeping the order given.
1. Cc1c(-c2ccccc2)[nH]c2ccccc12
2. CCCCOC(=O)CCCCCCCCC(=O)OCCCC
3. c1ccc(-c2c3ccccc3c(-c3ccccc3)c3ccccc23)cc1
4. CC1SC(C)SC(C)S1 (stereo not given)
5. O=C1C=C(c2ccccc2)CC1

Response:
[91.5, -10, 246, 101, -23]

Batch of 6 compounds: report melting point for each.
1. CCCN(CCOc1c(Cl)cc(Cl)cc1Cl)C(=O)n1ccnc1
2. CNS(=O)(=O)c1ccc(C)cc1
3. O=[N+]([O-])c1ccc2c(c1)Cc1ccccc1-2
4. c1cncc([C@@H]2CCCCN2)c1
5. O=[N+]([O-])c1ccccc1
6. O=C(Nc1ccc([N+](=O)[O-])cc1Cl)c1cc(Cl)ccc1O

Response:
1: 48; 2: 78.5; 3: 157; 4: 9; 5: 5.7; 6: 230

Below are some compounds; for each one, tell me its melting point.
1. CNC(=O)N(C)c1nc2ccccc2s1
2. C[C@]12C[C@@H](O)[C@H]3[C@@H](CC[C@]4(O)C[C@@H](O)C[C@@H](O)[C@]34CO)[C@@]1(O)CC[C@@H]2C1=CC(=O)OC1
3. C=CCCCC=C
4. Cc1[nH]c(=O)n(C(C)(C)C)c(=O)c1Cl
5. CC(C)CC1CCCCC1
6. FC(Cl)C(Cl)(Cl)Cl (stereo not given)
7. C=C

Response:
120
236
-129
176
-95
-95.3
-169

Return reported melting point values for all items listed beneath this line.
1. O=Cc1cccc([N+](=O)[O-])c1
2. CN1CC=C(c2ccccc2)CC1
3. C=CCCCCCCCCCCCCC
4. C1CCCCC1
5. Nc1ccn([C@@H]2O[C@H](COP(=O)(O)O)[C@@H](O)[C@@H]2O)c(=O)n1
6. CCCC(CC(OCC)OCC)OCC (stereo not given)

Response:
1: 58.5; 2: 40; 3: -2.8; 4: 6.6; 5: 233; 6: -100

Hi there! I need melting point for each item below, if you can.
1. Nc1ccc(S)cc1
2. CCOCCOCCOCCO
3. N#Cc1ncnc2nc[nH]c12
4. CCCCCCCCCCCCCCCCCCCCCCCCCCCCCCC
5. C#CC(C)(O)c1ccccc1 (stereo not given)
6. Nc1ccc(S(=O)(=O)NCc2ccccc2)cc1

Response:
1. 46
2. -18.7
3. 188
4. 67.9
5. 52.3
6. 171

Report melting point for every entry below.
1. O=c1ccn([C@@H]2O[C@H](CO)[C@@H](O)[C@@H]2O)c(=O)[nH]1
2. CCCCCCCCCCCCCCCCCC(=O)Cl
3. OC(c1ccc(Cl)cc1)(c1cncnc1)c1ccccc1Cl (stereo not given)
4. O=C(c1ccccc1)C1CC1
5. Cc1c(Cl)c(C)c(Cl)c(Cl)c1Cl
6. CCCCOCCOCCOCCO
7. CN(C)CCC(O)(c1ccccc1)c1ccccc1Cl (stereo not given)
8. c1cn[nH]c1

Response:
1: 165; 2: 23; 3: 118; 4: -7.9; 5: 223; 6: -30; 7: 120; 8: 68
